- assay_comment: AUC in mouse at 100 mg/kg, po
- Format: ADME, organism-based
- Design: dose 100 mg/kg, route po
- measurement_context: in vivo

{"compound_smiles": "CNC(=O)N(c1ccc(S(=O)(=O)Nc2ncccn2)cn1)c1cc(F)c(-c2ccc(F)c(OC(F)(F)F)c2)cc1OC", "AUC": "1150 µM·h"}

---

Reported clearance values are given for each entry in this list.
- assay_comment: Clearance in rat at 0.5 mg/kg, iv
- measurement_context: in vivo

{"compound_smiles": "COc1cc(-c2cccc(C(F)(F)F)c2)c(Cl)cc1N(C(N)=O)c1ccc(S(=O)(=O)Nc2ccon2)cn1", "clearance / mL/min/kg": 88.3}
{"compound_smiles": "CNC(=O)N(c1ccc(S(=O)(=O)Nc2ccon2)cc1)c1ccc(-c2ccc(Cl)c(C)c2)cc1OC", "clearance / mL/min/kg": 22.2}
{"compound_smiles": "CNC(=O)N(c1ccc(S(=O)(=O)Nc2ncccn2)cn1)c1cc(F)c(-c2ccc(F)c(OC(F)(F)F)c2)cc1OC", "clearance / mL/min/kg": 1.17}
{"compound_smiles": "CNC(=O)N(c1ccc(S(=O)(=O)Nc2ncccn2)cn1)c1cc(F)c(-c2cccc(C(F)(F)F)c2)cc1OC", "clearance / mL/min/kg": 0.5}

---

- assay_comment: Oral bioavailability in dog at 2 mg/kg
- Assay type: ADME, organism-based, Canis lupus familiaris
- measurement_context: in vivo
readout_type: bioavailability (%)

{"compound_smiles": "CNC(=O)N(c1ccc(S(=O)(=O)Nc2ncccn2)cn1)c1cc(F)c(-c2ccc(F)c(OC(F)(F)F)c2)cc1OC", "readout_type": "bioavailability", "reported_measurement": 104}

---

- test_target: Sodium channel protein type 9 subunit alpha (Homo sapiens, UniProt Q15858)
- Sequence (Q15858 whole entry): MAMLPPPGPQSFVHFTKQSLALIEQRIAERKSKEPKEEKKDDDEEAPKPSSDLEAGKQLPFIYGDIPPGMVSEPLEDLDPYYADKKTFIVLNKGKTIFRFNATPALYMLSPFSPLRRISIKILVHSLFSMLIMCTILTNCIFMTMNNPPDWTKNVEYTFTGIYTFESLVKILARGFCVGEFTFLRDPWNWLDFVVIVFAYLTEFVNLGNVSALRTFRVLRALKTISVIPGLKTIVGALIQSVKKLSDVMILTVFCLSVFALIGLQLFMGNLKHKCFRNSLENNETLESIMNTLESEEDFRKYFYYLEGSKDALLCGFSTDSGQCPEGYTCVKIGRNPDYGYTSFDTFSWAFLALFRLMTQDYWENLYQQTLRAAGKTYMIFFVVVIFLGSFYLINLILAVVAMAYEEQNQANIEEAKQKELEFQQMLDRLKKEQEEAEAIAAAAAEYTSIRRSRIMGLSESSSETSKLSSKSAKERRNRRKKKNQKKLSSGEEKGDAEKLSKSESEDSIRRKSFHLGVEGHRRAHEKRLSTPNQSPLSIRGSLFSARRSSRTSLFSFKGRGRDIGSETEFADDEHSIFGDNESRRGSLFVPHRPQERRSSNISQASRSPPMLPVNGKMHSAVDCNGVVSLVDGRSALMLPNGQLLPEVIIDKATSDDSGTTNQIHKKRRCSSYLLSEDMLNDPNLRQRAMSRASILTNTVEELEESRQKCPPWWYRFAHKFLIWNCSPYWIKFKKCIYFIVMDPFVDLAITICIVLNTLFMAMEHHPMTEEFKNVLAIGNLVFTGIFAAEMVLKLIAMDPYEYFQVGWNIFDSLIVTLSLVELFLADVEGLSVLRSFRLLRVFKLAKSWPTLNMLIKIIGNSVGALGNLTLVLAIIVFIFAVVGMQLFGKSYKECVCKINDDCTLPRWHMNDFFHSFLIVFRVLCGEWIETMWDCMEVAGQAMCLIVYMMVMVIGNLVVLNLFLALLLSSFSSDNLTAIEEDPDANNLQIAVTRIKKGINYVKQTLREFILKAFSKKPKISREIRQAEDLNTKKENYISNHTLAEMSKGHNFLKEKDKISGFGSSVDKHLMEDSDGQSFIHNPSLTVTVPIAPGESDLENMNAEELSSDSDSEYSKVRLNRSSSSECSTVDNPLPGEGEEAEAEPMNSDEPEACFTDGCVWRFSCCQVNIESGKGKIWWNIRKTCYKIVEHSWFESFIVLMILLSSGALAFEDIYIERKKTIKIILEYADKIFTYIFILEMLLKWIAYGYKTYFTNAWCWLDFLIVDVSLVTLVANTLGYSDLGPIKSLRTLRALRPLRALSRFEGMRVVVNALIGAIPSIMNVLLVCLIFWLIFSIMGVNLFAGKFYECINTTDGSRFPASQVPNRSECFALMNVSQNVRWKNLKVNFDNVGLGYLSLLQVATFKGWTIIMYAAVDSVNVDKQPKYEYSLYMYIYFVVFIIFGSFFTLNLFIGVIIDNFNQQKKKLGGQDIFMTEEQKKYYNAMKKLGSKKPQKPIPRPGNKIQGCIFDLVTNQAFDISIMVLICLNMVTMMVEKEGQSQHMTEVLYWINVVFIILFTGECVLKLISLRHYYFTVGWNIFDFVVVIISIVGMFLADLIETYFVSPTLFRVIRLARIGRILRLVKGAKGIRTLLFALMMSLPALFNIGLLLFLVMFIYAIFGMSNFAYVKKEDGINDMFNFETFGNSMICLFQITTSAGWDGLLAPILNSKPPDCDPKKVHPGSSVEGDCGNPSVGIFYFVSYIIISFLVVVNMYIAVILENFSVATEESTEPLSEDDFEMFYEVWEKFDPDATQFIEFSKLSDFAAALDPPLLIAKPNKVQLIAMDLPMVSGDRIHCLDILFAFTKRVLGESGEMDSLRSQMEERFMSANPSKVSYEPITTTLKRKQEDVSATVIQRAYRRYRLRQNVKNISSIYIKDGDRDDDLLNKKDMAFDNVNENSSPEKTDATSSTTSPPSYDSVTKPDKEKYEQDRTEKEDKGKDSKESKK
- assay_comment: Inhibition of human Nav1.7 by PatchXpress assay
- measurement_context: record 2
readout_type: IC50 (nM)

{"compound_smiles": "COc1cc(-c2ccc(Cl)c(C)c2)ccc1-n1c(=O)ccc2cc(S(=O)(=O)Nc3ccon3)ccc21", "test_target": "Sodium channel protein type 9 subunit alpha (Homo sapiens, UniProt Q15858)", "readout_type": "IC50", "unit_text": "nM", "reported_measurement": 10}

---

- assay_comment: Solubility of the compound at pH 7.4
- Assay type: physicochemical
- measurement_context: buffer

{"compound_smiles": "CNC(=O)N(c1ccc(S(=O)(=O)Nc2ncccn2)cn1)c1cc(F)c(-c2ccc(F)c(OC(F)(F)F)c2)cc1OC", "unit_text": "µM", "solubility": 260}

---

Reported CL free values are given for each entry in this list.
- measurement_context: rat, in vivo, iv, 0.5 mg/kg
- Description: Unbound clearance in rat at 0.5 mg/kg, iv
readout_type: CL free (L/h/kg)

{"compound_smiles": "CNC(=O)N(c1ccc(S(=O)(=O)Nc2ccon2)cn1)c1ccc(-c2ccc(Cl)c(C)c2)cc1OC", "readout_type": "CL free", "reported_measurement": 368}
{"compound_smiles": "CNC(=O)N(c1ccc(S(=O)(=O)Nc2ncccn2)cn1)c1cc(F)c(-c2cccc(C(F)(F)F)c2)cc1OC", "readout_type": "CL free", "reported_measurement": 16}
{"compound_smiles": "CNC(=O)N(c1ccc(S(=O)(=O)Nc2ccon2)cn1)c1cc(F)c(-c2ccc(F)c(OC(F)(F)F)c2)cc1OC", "readout_type": "CL free", "reported_measurement": 424}
